System: Salmonella enterica serovar Typhimurium SL1344
TEST CONTEXT: MHB
Structures can show the parent of a compound that is named as a salt.
PROPERTY MEASURED: MIC

Known results for compounds:
CO/N=C(\C(=O)N[C@@H]1C(=O)N2C(C(=O)O)=C(C[N+]3(C)CCCC3)CS[C@H]12)c1csc(N)n1 [CEFEPIME HYDROCHLORIDE] ... ≤ 0.78 µM
Oc1c(I)cc(Cl)c2cccnc12 [CLIOQUINOL] ... 50 µM
COc1cc(CNC(=O)CCCC/C=C/C(C)C)ccc1O [CAPSAICIN] ... > 50 µM
CCCNC(C)(C)COC(=O)c1ccccc1 [MEPRYLCAINE HYDROCHLORIDE] ... > 50 µM

Query: MIC; subject: CNC[C@H](O)c1cccc(O)c1 [PHENYLEPHRINE HYDROCHLORIDE]
Reply: > 50 µM

Query: Consider next the compound C[C@H]1c2cccc(O)c2C(=O)C2=C(O)[C@]3(O)C(=O)C(C(N)=O)=C(O)[C@@H](N(C)C)[C@@H]3[C@@H](O)[C@@H]21 [DOXYCYCLINE HYDROCHLORIDE] in the same way.
Reply: 6.25 µM

Query: Consider next the compound O=c1[nH]c(=O)n([C@H]2C[C@H](O)[C@@H](CO)O2)cc1F [FLOXURIDINE] in the same way.
Reply: ≤ 0.78 µM

Query: Consider next the compound CCCCC(CC)CN1CN(CC(CC)CCCC)CC(C)(N)C1 (configuration not stated) [HEXETIDINE] in the same way.
Reply: > 50 µM

Query: Consider next the compound CCn1cc(C(=O)O)c(=O)c2ccc(C)nc21 [NALIDIXIC ACID] in the same way.
Reply: 25 µM

Query: Consider next the compound CC[C@@H]1C(=O)OC[C@@H]1Cc1cncn1C [PILOCARPINE NITRATE] in the same way.
Reply: > 50 µM

Query: Consider next the compound CC1CCc2c(N3CCC(O)CC3)c(F)cc3c(=O)c(C(=O)O)cn1c23 (configuration not stated) [NADIFLOXACIN] in the same way.
Reply: 3.13 µM

Query: Consider next the compound OC[C@H]1O[C@H](O[C@]2(CCl)O[C@H](CCl)[C@@H](O)[C@@H]2O)[C@H](O)[C@@H](O)[C@H]1Cl [SUCRALOSE] in the same way.
Reply: ≤ 0.78 µM

###

Below, each entry is listed with its recorded MIC.
Tested on: Salmonella enterica serovar Typhimurium SL1344
TEST CONTEXT: LPM pH 5.8
Structures can show the parent of a compound that is named as a salt.

Nc1ncn([C@@H]2O[C@H](CO)[C@@H](O)[C@H]2O)c(=O)n1 ... ≤ 0.78 µM
O=C(CCCN1CCC(O)(c2ccc(Br)cc2)CC1)c1ccc(F)cc1 ... > 50 µM
CC(C)NCC(O)COc1cccc2[nH]ccc12 (configuration not stated) ... > 50 µM
CCn1nc(C(=O)O)c(=O)c2cc3c(cc21)OCO3 ... ≤ 0.78 µM
Oc1c(Cl)cc(Cl)c2cccnc12 ... ≤ 0.78 µM
CC(=O)OC1CN2CCC1CC2 (configuration not stated) ... > 50 µM

Query: MIC; subject: CCCCC(CC)CN1CN(CC(CC)CCCC)CC(C)(N)C1 (configuration not stated)
Reply: 25 µM

Query: Consider next the compound CCn1cc(C(=O)O)c(=O)c2cc3c(cc21)OCO3 in the same way.
Reply: 1.56 µM

Query: Consider next the compound Cc1cc(CC(C)CC(C)(C)C)n(O)c(=O)c1 (configuration not stated) in the same way.
Reply: ≤ 0.78 µM

Query: Consider next the compound Nc1nc(/C(=C/CC(=O)O)C(=O)N[C@@H]2C(=O)N3C(C(=O)O)=CCS[C@H]23)cs1 in the same way.
Reply: ≤ 0.78 µM

Query: Consider next the compound O=C(O)c1cn(-c2ccc(F)cc2)c2cc(N3CCNCC3)c(F)cc2c1=O [SARAFLOXACIN HYDROCHLORIDE] in the same way.
Reply: ≤ 0.78 µM

Query: Consider next the compound C[C@H]1O[C@@H](n2cc(F)c(=O)[nH]c2=O)[C@H](O)[C@@H]1O in the same way.
Reply: ≤ 0.78 µM

###

Below, each entry is listed with its recorded MIC.
System: Salmonella enterica serovar Typhimurium SL1344
TEST CONTEXT: LPM pH 5.8
Structures can show the parent of a compound that is named as a salt.

Known results for compounds:
CO/N=C(\C(=O)N[C@@H]1C(=O)N2C(C(=O)O)=C(C[N+]3(C)CCCC3)CS[C@H]12)c1csc(N)n1 [CEFEPIME HYDROCHLORIDE] ... ≤ 0.78 µM
O=C(O)CN(CCN(CC(=O)O)CC(=O)O)CCN(CC(=O)O)CC(=O)O ... ≤ 0.78 µM
COc1ccc(C(=O)c2ccccc2)c(O)c1 ... > 50 µM

Query: MIC; subject: O=c1[nH]cc(F)c(=O)[nH]1
Reply: ≤ 0.78 µM

Query: Consider next the compound Oc1c(Br)cc(Br)c2cccnc12 in the same way.
Reply: ≤ 0.78 µM

Query: Consider next the compound COC(=O)N/N=C/c1c[n+]([O-])c2ccccc2[n+]1[O-] in the same way.
Reply: 25 µM

Query: Consider next the compound CC1CCc2cc(F)cc3c(=O)c(C(=O)O)cn1c23 (centres undefined) in the same way.
Reply: ≤ 0.78 µM

Query: Consider next the compound CCCCc1nc(Cl)c(CO)n1Cc1ccc(-c2ccccc2-c2nnn[nH]2)cc1 in the same way.
Reply: > 50 µM

Query: Consider next the compound CO[C@]12C[C@@H](COC(=O)c3cncc(Br)c3)CN(C)[C@@H]1Cc1cn(C)c3cccc2c13 in the same way.
Reply: > 50 µM

###

Test system: Salmonella enterica serovar Typhimurium SL1344
TEST CONTEXT: MHB
Where a name gives a salt, the structure may show the parent alone.
PROPERTY MEASURED: MIC

Cc1ccc(Nc2c(F)cccc2Cl)c(CC(=O)O)c1 ... > 50 µM
CCCCCN(C)CCC(O)(P(=O)(O)O)P(=O)(O)O [IBANDRONATE SODIUM] ... > 50 µM
Oc1cc(Cl)ccc1Oc1ccc(Cl)cc1Cl ... ≤ 0.78 µM
C=C1c2c(Cl)ccc(O)c2C(=O)C2=C(O)[C@]3(O)C(=O)C(C(N)=O)=C(O)[C@@H](N(C)C)[C@@H]3[C@@H](O)[C@H]12.O=C(O)c1cc(S(=O)(=O)O)ccc1O [MECLOCYCLINE SULFOSALICYLATE] ... ≤ 0.78 µM
C[C@H]1C[C@@H]2[C@H]([C@@H](O)C[C@@]3(C)[C@H]2CC[C@]3(O)C(=O)CO)[C@@]2(C)C=CC(=O)C=C12 ... > 50 µM

Query: MIC; subject: Nc1ncn([C@@H]2O[C@H](CO)[C@@H](O)[C@H]2O)c(=O)n1
Reply: 25 µM

Query: Consider next the molecule NCc1ccc(S(N)(=O)=O)cc1 [MAFENIDE HYDROCHLORIDE] in the same way.
Reply: > 50 µM

Query: Consider next the molecule CCn1cc(C(=O)O)c(=O)c2cc(F)c(N3CCNCC3)cc21 in the same way.
Reply: ≤ 0.78 µM

Query: Consider next the molecule CCCCC(=O)O[C@]1(C(=O)CO)[C@@H](C)C[C@H]2[C@@H]3CCC4=CC(=O)C=C[C@]4(C)[C@@]3(F)[C@@H](O)C[C@@]21C [BETAMETHASONE VALERATE] in the same way.
Reply: > 50 µM

Query: Consider next the molecule COc1ccc2cc1Oc1ccc(cc1)C[C@H]1c3c(cc4c(c3Oc3cc5c(cc3OC)CCN(C)[C@@H]5C2)OCO4)CCN1C in the same way.
Reply: > 50 µM

Query: Consider next the molecule CCCCCCCCNC(C)C(O)c1ccc(SC(C)C)cc1 (stereo not given) in the same way.
Reply: > 50 µM

Query: Consider next the molecule [O-][n+]1ccccc1[S-].[O-][n+]1ccccc1[S-].[Zn+2] in the same way.
Reply: 3.13 µM

Query: Consider next the molecule O=S(=O)(O)NC1CCCCC1 in the same way.
Reply: > 50 µM

Query: Consider next the molecule CO[C@H]1/C=C/O[C@@]2(C)Oc3c(C)c(O)c4c(O)c(c5c(nc6cc(C)ccn65)c4c3C2=O)NC(=O)/C(C)=C\C=C\[C@H](C)[C@H](O)[C@@H](C)[C@@H](O)[C@@H](C)[C@H](OC(C)=O)[C@@H]1C in the same way.
Reply: 12.5 µM

Query: Consider next the molecule CC(C)NCC(O)COc1cccc2[nH]ccc12 (stereo not given) in the same way.
Reply: > 50 µM

###

Below, each entry is listed with its recorded intracellular MIC.
Tested on: Salmonella enterica serovar Typhimurium SL1344
EXPERIMENT: intracellular MIC (10-fold luminescence reduction); higher = less potent
TEST CONTEXT: RAW264.7 macrophages
Where a name gives a salt, the structure may show the parent alone.
Give the number; µM is assumed, so skip it.

CC1CCc2c(N3CCC(O)CC3)c(F)cc3c(=O)c(C(=O)O)cn1c23 (centres undefined) ... 1.56

--- query ---
Query: intracellular MIC; subject: CN1CCN(c2cc3c(cc2F)c(=O)c(C(=O)O)cn3-c2ccc(F)cc2)CC1 [DIFLOXACIN HYDROCHLORIDE]
Reply: 1.56
